Data origin, for the record: patent US6855730B2

Listed compounds paired with reported pIC50
- Target Under Test: chimeric receptor containing the EGFR extracellular domain and intracellular HER2 kinase domain (Homo sapiens)
- Construct: fused on or other part: EGFR ectodomain + HER2 intracellular part, ATP-site indolinones: HER2's kinase
- Sequence (P04626 720-1255 limits assumed, change not shown): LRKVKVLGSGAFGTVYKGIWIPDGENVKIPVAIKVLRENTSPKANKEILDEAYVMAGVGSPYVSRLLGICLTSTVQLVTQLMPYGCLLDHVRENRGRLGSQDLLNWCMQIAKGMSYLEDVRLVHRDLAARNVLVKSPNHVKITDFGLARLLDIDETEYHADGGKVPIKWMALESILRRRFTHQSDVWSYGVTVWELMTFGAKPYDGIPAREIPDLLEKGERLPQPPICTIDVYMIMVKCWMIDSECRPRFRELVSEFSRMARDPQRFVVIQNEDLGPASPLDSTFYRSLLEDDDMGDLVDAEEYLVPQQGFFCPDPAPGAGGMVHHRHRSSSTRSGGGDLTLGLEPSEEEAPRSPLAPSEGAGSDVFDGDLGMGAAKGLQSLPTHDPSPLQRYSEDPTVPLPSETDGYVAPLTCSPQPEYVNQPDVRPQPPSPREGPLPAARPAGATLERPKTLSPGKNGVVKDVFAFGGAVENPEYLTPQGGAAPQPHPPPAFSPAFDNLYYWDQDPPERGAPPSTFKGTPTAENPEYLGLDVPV
- Method Notes: EGF Receptor-HER2 chimeric receptor assay in whole cells (ELISA)
- Condition Notes: read-out: HER-2 kinase IC50
pIC50: −log10 of the molar value.

{"Compound String": "COc1c(C(C)C)cc(/C=C2/C(=O)Nc3cc(F)ccc32)cc1C(C)C", "Censoring Qualifier": "=", "pIC50": 4.91}
{"Compound String": "COc1cc(C)c(/C=C2/C(=O)Nc3ccc(Br)cc32)cc1C(C)C", "Censoring Qualifier": "=", "pIC50": 4.68}
{"Compound String": "COc1c(C(C)C)cc(/C=C2/C(=O)Nc3ccc(N)cc32)cc1C(C)C", "Censoring Qualifier": "=", "pIC50": 4.41}
{"Compound String": "COc1ccc(/C=C2/C(=O)Nc3ccc(F)cc32)cc1C(C)C", "Censoring Qualifier": "=", "pIC50": 4.27}
{"Compound String": "COc1ccc(/C=C2/C(=O)Nc3ccc(F)cc32)cc1C1CCCC1", "Censoring Qualifier": "=", "pIC50": 4.24}
{"Compound String": "O=C1Nc2ccc(Cl)cc2/C1=C/c1cc2ccccc2[nH]1", "Censoring Qualifier": "<", "pIC50": 4.00}
{"Compound String": "COc1ccc(/C=C2/C(=O)Nc3ncccc32)cc1C(C)C", "Censoring Qualifier": "<", "pIC50": 4.00}
{"Compound String": "COc1c(C(C)C)cc(/C=C2/C(=O)Nc3ccc(Br)cc32)cc1C(C)C", "Censoring Qualifier": "=", "pIC50": 4.07}
{"Compound String": "COc1cc(C)c(/C=C2/C(=O)Nc3ccc(F)cc32)cc1C(C)C", "Censoring Qualifier": "=", "pIC50": 4.55}

###

- Target Under Test: human flk-1 (Homo sapiens, UniProt P35968)
- Construct: host or cells: Flk-1/NIH cells (NIH fibroblasts)
- Sequence (P35968 20-1356): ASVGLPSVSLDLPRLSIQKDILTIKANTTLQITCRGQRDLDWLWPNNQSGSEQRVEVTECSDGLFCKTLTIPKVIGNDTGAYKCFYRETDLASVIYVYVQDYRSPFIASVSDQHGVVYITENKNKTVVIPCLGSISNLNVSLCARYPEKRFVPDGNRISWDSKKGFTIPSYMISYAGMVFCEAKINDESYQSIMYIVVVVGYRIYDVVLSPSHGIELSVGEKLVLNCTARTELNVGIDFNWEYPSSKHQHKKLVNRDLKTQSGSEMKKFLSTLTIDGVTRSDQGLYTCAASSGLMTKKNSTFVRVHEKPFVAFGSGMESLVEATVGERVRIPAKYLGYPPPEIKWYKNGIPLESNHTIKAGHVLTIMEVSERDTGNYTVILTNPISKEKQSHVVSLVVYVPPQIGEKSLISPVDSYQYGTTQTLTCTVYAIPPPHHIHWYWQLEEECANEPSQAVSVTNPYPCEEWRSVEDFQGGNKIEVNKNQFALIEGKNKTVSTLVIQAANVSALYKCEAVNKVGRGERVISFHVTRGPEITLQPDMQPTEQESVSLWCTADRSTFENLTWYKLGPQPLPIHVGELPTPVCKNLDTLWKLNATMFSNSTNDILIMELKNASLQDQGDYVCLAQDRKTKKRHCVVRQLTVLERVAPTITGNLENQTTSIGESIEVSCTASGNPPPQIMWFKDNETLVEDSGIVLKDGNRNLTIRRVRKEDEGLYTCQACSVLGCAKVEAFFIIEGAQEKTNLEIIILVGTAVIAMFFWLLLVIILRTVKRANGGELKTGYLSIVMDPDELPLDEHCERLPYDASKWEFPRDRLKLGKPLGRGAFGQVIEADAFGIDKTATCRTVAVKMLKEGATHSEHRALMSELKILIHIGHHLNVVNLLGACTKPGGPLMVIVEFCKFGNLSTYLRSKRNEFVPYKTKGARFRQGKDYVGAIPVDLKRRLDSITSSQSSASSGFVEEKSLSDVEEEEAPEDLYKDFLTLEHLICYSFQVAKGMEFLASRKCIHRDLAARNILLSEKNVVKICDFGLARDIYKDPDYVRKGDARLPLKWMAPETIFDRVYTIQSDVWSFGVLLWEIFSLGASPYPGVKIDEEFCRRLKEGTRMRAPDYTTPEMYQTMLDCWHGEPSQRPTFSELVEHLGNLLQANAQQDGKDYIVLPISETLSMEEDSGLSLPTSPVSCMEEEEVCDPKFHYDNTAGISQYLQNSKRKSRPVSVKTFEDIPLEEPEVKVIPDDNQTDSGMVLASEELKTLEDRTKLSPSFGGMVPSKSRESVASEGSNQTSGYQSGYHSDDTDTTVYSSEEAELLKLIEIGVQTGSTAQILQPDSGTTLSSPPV
- Method Notes: Biochemical FLK-1 assay (flk-1 autophosphorylation ELISA)
- Condition Notes: read-out: bio FLK1 IC50 (μM) % if inhibition at 100
Quantity Measured: log10(IC50) (log10 of the value in µM)

{"Compound": "O=C1Nc2ccccc2/C1=C/c1[nH]c2c(c1CCC(=O)N1CCOCC1)CCCC2 [Example 200]", "log10(IC50)": -0.01}
{"Compound": "Cc1c(/C=C2\\C(=O)Nc3ccc(C(=O)O)cc32)[nH]c2ccccc12 [Example 156]", "log10(IC50)": 0.62}
{"Compound": "O=C(O)CCc1c(/C=C2\\C(=O)Nc3ccc(Br)cc32)[nH]c2c1CCCC2 [Example 192]", "log10(IC50)": -1.52}
{"Compound": "Cc1cccc2c1/C(=C/c1[nH]c3ccccc3c1C)C(=O)N2 [Example 170]", "log10(IC50)": 1.03}
{"Compound": "O=C(O)CCc1c(/C=C2\\C(=O)Nc3ccccc32)[nH]c2c1CCCC2 [Example 190]", "log10(IC50)": -1.22}
{"Compound": "NC(=O)CCc1c(/C=C2\\C(=O)Nc3ccccc32)[nH]c2c1CCCC2 [Example 199]", "log10(IC50)": -0.89}
{"Compound": "Nc1ccc2c(c1)/C(=C/c1cc3ccccc3[nH]1)C(=O)N2 [Example 160]", "log10(IC50)": 0.18}
{"Compound": "Cc1cccc2c1/C(=C/c1[nH]c3c(c1CCC(=O)O)CCCC3)C(=O)N2 [Example 193]", "log10(IC50)": -1.70}
{"Compound": "CNC(=O)CCc1c(/C=C2\\C(=O)Nc3ccccc32)[nH]c2c1CCCC2 [Example 201]", "log10(IC50)": -0.80}
